For each of the compounds below, state its IC50.
Target: UniProt:Q96S37
Sequence (Q96S37 whole entry): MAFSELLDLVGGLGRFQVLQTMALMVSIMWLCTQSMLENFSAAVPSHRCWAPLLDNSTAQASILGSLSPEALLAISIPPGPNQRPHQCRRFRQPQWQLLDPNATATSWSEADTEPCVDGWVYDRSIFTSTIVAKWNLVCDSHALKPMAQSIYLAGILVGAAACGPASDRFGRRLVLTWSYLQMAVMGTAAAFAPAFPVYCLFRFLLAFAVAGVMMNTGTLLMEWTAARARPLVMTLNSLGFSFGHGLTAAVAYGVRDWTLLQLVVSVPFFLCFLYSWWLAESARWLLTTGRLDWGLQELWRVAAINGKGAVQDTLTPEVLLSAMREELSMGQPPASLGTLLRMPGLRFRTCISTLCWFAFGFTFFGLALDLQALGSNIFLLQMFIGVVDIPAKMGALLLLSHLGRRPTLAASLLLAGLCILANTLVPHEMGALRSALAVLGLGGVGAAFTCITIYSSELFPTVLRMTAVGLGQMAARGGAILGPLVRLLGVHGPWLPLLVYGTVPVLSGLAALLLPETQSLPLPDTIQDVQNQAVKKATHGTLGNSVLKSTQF
Assay: Inhibition of URAT1 (unknown origin)
Give bare numbers, in nM.

>  <compound>
CC(C)(Sc1ccncc1Cc1ccc(C#N)c2ccccc12)C(=O)O

>  <IC50 [nM]>
2080

$$$$
>  <compound>
O=C(c1cc(Cl)c(O)c(Cl)c1)N1CS(=O)(=O)c2ccccc21 [DOTINURAD]

>  <IC50 [nM]>
40

$$$$

Shift focus to the following entry.
# query: IC50 | item CC(C)=CCc1c(O)ccc2c1OC(c1ccc(O)cc1)CC2=O (stereo not drawn) | system: UniProt:Q96S37
220
